Listing of entries alongside the reported IC50.
- targetOrSystem: JAK2 kinase activity on STAT5 in TF1 cells (Homo sapiens, UniProt O60674)
- Sequence (O60674 whole entry): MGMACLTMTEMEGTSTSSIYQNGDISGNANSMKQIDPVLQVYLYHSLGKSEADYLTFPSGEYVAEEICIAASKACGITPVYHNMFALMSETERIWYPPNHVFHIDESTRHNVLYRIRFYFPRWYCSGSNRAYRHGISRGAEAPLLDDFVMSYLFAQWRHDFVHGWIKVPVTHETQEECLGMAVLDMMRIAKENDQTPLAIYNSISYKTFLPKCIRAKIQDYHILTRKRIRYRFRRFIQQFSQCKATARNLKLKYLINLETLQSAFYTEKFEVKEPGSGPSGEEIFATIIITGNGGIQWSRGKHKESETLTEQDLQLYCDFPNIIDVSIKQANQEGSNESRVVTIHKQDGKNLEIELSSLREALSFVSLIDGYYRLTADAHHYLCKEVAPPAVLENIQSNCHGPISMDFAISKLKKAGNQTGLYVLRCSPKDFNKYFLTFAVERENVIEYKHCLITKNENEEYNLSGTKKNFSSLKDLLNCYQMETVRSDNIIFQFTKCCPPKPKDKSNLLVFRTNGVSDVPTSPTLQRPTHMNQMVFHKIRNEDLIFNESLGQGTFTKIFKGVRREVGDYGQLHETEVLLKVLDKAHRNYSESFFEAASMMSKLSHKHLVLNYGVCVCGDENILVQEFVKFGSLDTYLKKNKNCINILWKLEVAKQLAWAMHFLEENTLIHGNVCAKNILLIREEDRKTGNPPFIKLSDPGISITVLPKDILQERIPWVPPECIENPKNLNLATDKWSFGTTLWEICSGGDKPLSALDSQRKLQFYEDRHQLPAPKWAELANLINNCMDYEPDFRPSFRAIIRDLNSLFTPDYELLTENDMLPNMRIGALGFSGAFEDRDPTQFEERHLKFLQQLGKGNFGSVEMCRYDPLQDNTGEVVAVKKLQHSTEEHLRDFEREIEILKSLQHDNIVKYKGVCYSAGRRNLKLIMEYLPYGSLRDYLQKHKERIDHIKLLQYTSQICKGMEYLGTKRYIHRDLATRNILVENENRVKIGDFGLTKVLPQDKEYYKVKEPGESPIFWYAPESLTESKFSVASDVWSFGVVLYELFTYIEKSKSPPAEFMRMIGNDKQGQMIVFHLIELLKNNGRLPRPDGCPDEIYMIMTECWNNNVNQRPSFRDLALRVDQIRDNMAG
- experimentDescription: pSTAT5 cell assay (MSD; TF1 cells, 30 ng/mL IL-3 stimulation)
- conditionDescription: 30 ng/mL IL-3, 15 minutes

IC50 measured on COc1cc(-c2cc3c(N4CC[C@@](C#N)(C5CC5)C4=O)ccnc3[nH]2)ccn1 = 1 to 5 µM

New cases:
What the record says about CCn1cc(-n2nc(N3C[C@@H](C)[C@@](C#N)(C4CC4)C3=O)c3ccncc32)cn1 : IC50 is 5 to 10 µM

Record C[C@@H]1CN(c2ccnn3cc(-c4cnn(-c5ccncc5)c4)cc23)C(=O)[C@]1(C#N)C1CC1 , field IC50: 1 to 5 µM

Form: compound = C[C@@H]1CN(c2nc(-c3cnc4c(c3)CC(=O)N4)cn3nccc23)C(=O)[C@]1(C#N)C1CC1 ; IC50 = 5 to 10 µM
